Recorded values, source ChEMBL document CHEMBL4321812.

I'd appreciate it if you could supply Kd values for the items below.
TARGET: Ribosomal protein S6 kinase alpha-1 (Homo sapiens, UniProt Q15418)
Sequence (Q15418 whole entry): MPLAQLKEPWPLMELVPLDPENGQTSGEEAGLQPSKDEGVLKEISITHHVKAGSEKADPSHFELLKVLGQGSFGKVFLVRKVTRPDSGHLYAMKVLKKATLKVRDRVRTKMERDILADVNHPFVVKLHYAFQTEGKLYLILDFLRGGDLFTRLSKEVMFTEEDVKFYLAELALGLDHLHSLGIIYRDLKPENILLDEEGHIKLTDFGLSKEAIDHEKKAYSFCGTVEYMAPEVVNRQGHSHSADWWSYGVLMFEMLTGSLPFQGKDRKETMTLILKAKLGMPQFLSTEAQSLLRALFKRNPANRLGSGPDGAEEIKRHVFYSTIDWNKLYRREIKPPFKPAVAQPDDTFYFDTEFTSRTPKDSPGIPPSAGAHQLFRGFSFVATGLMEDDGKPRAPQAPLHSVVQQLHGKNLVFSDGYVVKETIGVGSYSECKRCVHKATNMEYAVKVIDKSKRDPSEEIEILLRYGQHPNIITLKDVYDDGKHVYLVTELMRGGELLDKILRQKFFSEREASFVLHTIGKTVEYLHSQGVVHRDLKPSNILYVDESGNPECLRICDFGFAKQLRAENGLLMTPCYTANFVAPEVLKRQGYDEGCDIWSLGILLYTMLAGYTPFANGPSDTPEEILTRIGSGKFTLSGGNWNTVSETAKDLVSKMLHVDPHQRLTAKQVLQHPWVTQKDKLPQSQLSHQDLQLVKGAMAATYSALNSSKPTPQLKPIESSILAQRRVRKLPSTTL
PROTOCOL DETAILS: Binding affinity to recombinant full length human N-terminal GST-tagged RPS6KA1 expressed in baculovirus expression system using S6K peptide as substrate incubated for 1 hr by TR-FRET assay

{"STRUCTURE AS SMILES": "CO[C@@H]1[C@H](NCCOCCOCCOCCNC(=O)CCC2=[N+]3C(=Cc4c(C)cc(C)n4[B-]3(F)F)C=C2)C[C@H]2O[C@]1(C)n1c3ccccc3c3c4c(c5c6ccccc6n2c5c31)C(=O)NC4", "RECORDED MEASUREMENT": "16 nM"}

// Kd lookup, key: `CO[C@@H]1[C@H](N(C)CCOCCOCCOCCNC(=O)CCC2=[N+]3C(=Cc4c(C)cc(C)n4[B-]3(F)F)C=C2)C[C@H]2O[C@]1(C)n1c3ccccc3c3c4c(c5c6ccccc6n2c5c31)C(=O)NC4`
36 nM

====

TARGET: Ribosomal protein S6 kinase alpha-6 (Homo sapiens)
Sequence (Q9UK32 whole entry): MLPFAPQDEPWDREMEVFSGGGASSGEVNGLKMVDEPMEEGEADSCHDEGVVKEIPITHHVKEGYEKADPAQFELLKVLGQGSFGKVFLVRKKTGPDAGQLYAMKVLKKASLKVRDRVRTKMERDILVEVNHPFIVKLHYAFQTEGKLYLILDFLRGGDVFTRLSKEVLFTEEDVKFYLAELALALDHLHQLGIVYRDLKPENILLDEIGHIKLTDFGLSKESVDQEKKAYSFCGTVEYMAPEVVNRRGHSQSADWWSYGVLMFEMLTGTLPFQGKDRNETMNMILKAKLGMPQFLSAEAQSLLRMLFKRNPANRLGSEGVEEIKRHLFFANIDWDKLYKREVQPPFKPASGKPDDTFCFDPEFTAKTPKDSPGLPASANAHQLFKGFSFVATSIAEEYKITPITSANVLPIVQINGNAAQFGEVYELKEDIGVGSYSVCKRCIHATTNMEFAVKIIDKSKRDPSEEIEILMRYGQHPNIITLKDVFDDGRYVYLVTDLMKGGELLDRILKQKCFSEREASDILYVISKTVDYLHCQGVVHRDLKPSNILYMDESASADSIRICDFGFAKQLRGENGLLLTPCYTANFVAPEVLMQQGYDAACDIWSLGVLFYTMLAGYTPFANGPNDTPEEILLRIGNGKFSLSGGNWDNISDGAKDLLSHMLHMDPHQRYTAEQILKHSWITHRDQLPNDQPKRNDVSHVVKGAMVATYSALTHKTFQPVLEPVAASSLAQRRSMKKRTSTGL
PROTOCOL DETAILS: Binding affinity to recombinant full-length N-terminal His-FLAG-tagged RPS6KA6 (unknown origin) expressed in baculovirus infected Sf9 insect cells incubated for 1 hr by TR-FRET assay
I'd appreciate it if you could supply pKd values for the items below.
Give bare numbers, as −log10 of the molar value.

{"STRUCTURE AS SMILES": "CO[C@@H]1[C@H](NCCOCCOCCOCCNC(=O)CCC2=[N+]3C(=Cc4c(C)cc(C)n4[B-]3(F)F)C=C2)C[C@H]2O[C@]1(C)n1c3ccccc3c3c4c(c5c6ccccc6n2c5c31)C(=O)NC4", "pKd": 7.68}

Then there is this compound:
// pKd lookup, key: `CO[C@@H]1[C@H](N(C)CCOCCOCCOCCNC(=O)CCC2=[N+]3C(=Cc4c(C)cc(C)n4[B-]3(F)F)C=C2)C[C@H]2O[C@]1(C)n1c3ccccc3c3c4c(c5c6ccccc6n2c5c31)C(=O)NC4`
7.85

====

TARGET: Mitogen-activated protein kinase kinase kinase 2 (Homo sapiens, UniProt Q9Y2U5)
Sequence (Q9Y2U5 whole entry): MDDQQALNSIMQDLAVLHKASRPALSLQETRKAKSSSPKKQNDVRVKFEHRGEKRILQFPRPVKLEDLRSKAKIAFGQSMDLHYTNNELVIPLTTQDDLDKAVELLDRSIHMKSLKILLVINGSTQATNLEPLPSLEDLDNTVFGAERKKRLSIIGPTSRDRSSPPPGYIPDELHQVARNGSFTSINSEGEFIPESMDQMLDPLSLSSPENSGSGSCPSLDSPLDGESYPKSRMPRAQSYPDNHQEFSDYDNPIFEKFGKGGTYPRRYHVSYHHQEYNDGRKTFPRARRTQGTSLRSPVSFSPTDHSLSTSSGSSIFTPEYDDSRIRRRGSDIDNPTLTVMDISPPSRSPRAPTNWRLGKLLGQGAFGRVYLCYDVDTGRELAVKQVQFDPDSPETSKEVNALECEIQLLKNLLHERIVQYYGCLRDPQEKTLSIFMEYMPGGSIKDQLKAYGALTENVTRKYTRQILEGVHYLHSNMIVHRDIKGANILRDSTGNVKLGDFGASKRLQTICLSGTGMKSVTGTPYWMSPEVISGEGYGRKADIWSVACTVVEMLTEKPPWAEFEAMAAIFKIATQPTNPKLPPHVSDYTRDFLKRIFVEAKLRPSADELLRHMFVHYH
PROTOCOL DETAILS: Binding affinity to recombinant full-length N-terminal His-FLAG-GST-tagged MAP3K2 (unknown origin) (337 to 620 residues) expressed in baculovirus infected Sf9 insect cells incubated for 1 hr by TR-FRET assay
I'd appreciate it if you could supply pKd values for the items below.
Numbers only, as −log10 of the molar value.

Each molecule below has a reported value. Please supply its pKd.
1. CO[C@@H]1[C@H](NCCOCCOCCOCCNC(=O)CCC2=[N+]3C(=Cc4c(C)cc(C)n4[B-]3(F)F)C=C2)C[C@H]2O[C@]1(C)n1c3ccccc3c3c4c(c5c6ccccc6n2c5c31)C(=O)NC4
2. CO[C@@H]1[C@H](N(C)CCOCCOCCOCCNC(=O)CCC2=[N+]3C(=Cc4c(C)cc(C)n4[B-]3(F)F)C=C2)C[C@H]2O[C@]1(C)n1c3ccccc3c3c4c(c5c6ccccc6n2c5c31)C(=O)NC4

1: 7.42; 2: 7.28

====

TARGET: Serine/threonine-protein kinase 32C (Homo sapiens)
Sequence (Q86UX6 whole entry, the tested form may be a part): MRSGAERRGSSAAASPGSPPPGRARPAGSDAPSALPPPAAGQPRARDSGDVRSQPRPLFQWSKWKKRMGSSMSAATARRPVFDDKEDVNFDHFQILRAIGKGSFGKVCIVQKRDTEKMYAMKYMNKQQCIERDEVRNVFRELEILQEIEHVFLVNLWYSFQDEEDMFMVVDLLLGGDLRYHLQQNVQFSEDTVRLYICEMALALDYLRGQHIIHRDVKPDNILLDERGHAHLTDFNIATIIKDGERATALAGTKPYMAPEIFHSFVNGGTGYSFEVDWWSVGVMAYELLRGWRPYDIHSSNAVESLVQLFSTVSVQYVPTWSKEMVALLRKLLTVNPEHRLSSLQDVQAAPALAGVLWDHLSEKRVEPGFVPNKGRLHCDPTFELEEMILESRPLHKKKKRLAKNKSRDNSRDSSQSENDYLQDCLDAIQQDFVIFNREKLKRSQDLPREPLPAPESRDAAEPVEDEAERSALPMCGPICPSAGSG
PROTOCOL DETAILS: Binding affinity to recombinant full-length N-terminal His-FLAG-GST-tagged STK32C (unknown origin) (66 to 486 residues) expressed in baculovirus infected Sf9 insect cells incubated for 1 hr by TR-FRET assay
ENDPOINT: Kd (nM)
One number for each entry, in nM.

{"STRUCTURE AS SMILES": "CO[C@@H]1[C@H](N(C)CCOCCOCCOCCNC(=O)CCC2=[N+]3C(=Cc4c(C)cc(C)n4[B-]3(F)F)C=C2)C[C@H]2O[C@]1(C)n1c3ccccc3c3c4c(c5c6ccccc6n2c5c31)C(=O)NC4", "RECORDED MEASUREMENT": 326}

Then there is this molecule:
// Kd lookup, key: `CO[C@@H]1[C@H](NCCOCCOCCOCCNC(=O)CCC2=[N+]3C(=Cc4c(C)cc(C)n4[B-]3(F)F)C=C2)C[C@H]2O[C@]1(C)n1c3ccccc3c3c4c(c5c6ccccc6n2c5c31)C(=O)NC4`
448

====

TARGET: Serine/threonine-protein kinase SIK2 (Homo sapiens, UniProt Q9H0K1)
PROTOCOL DETAILS: Binding affinity to recombinant full-length N-terminal His-FLAG-GST-tagged SIK2 (unknown origin) expressed in baculovirus infected Sf9 insect cells incubated for 1 hr by TR-FRET assay
I'd appreciate it if you could supply pKd values for the items below.
Numbers only, as −log10 of the molar value.

{"STRUCTURE AS SMILES": "CO[C@@H]1[C@H](NCCOCCOCCOCCNC(=O)CCC2=[N+]3C(=Cc4c(C)cc(C)n4[B-]3(F)F)C=C2)C[C@H]2O[C@]1(C)n1c3ccccc3c3c4c(c5c6ccccc6n2c5c31)C(=O)NC4", "pKd": 8.40}

Then there is this compound:
// pKd lookup, key: `CO[C@@H]1[C@H](N(C)CCOCCOCCOCCNC(=O)CCC2=[N+]3C(=Cc4c(C)cc(C)n4[B-]3(F)F)C=C2)C[C@H]2O[C@]1(C)n1c3ccccc3c3c4c(c5c6ccccc6n2c5c31)C(=O)NC4`
8.52

====

I'd appreciate it if you could supply Kd values for the items below.
TARGET: UniProt:Q15835
Sequence (Q15835 whole entry): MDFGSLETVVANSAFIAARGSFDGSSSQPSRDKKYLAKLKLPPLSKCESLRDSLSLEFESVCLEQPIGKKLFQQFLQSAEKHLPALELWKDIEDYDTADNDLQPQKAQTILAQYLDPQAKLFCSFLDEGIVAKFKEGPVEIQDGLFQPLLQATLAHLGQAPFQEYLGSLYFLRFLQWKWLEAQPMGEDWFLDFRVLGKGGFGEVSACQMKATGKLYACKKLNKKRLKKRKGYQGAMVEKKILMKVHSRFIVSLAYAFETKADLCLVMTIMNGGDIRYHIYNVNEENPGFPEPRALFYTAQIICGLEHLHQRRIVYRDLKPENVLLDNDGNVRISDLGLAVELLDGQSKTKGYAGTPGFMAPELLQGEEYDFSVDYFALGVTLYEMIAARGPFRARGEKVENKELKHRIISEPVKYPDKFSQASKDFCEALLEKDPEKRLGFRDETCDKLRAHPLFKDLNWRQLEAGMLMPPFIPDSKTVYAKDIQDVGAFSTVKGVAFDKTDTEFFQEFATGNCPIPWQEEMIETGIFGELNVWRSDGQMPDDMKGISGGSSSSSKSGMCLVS
PROTOCOL DETAILS: Binding affinity to recombinant full-length N-terminal His-FLAG-GST-tagged GRK1 (unknown origin) expressed in baculovirus infected Sf9 insect cells incubated for 1 hr by TR-FRET assay

{"STRUCTURE AS SMILES": "CO[C@@H]1[C@H](N(C)CCOCCOCCOCCNC(=O)CCC2=[N+]3C(=Cc4c(C)cc(C)n4[B-]3(F)F)C=C2)C[C@H]2O[C@]1(C)n1c3ccccc3c3c4c(c5c6ccccc6n2c5c31)C(=O)NC4", "TARGET": "UniProt:Q15835", "Kd": "109 nM"}

Then there is this compound:
// Kd lookup, key: `CO[C@@H]1[C@H](NCCOCCOCCOCCNC(=O)CCC2=[N+]3C(=Cc4c(C)cc(C)n4[B-]3(F)F)C=C2)C[C@H]2O[C@]1(C)n1c3ccccc3c3c4c(c5c6ccccc6n2c5c31)C(=O)NC4`
122 nM

====

TARGET: Rho-associated protein kinase 1 (Homo sapiens)
Sequence (Q13464 whole entry, the tested form may be a part): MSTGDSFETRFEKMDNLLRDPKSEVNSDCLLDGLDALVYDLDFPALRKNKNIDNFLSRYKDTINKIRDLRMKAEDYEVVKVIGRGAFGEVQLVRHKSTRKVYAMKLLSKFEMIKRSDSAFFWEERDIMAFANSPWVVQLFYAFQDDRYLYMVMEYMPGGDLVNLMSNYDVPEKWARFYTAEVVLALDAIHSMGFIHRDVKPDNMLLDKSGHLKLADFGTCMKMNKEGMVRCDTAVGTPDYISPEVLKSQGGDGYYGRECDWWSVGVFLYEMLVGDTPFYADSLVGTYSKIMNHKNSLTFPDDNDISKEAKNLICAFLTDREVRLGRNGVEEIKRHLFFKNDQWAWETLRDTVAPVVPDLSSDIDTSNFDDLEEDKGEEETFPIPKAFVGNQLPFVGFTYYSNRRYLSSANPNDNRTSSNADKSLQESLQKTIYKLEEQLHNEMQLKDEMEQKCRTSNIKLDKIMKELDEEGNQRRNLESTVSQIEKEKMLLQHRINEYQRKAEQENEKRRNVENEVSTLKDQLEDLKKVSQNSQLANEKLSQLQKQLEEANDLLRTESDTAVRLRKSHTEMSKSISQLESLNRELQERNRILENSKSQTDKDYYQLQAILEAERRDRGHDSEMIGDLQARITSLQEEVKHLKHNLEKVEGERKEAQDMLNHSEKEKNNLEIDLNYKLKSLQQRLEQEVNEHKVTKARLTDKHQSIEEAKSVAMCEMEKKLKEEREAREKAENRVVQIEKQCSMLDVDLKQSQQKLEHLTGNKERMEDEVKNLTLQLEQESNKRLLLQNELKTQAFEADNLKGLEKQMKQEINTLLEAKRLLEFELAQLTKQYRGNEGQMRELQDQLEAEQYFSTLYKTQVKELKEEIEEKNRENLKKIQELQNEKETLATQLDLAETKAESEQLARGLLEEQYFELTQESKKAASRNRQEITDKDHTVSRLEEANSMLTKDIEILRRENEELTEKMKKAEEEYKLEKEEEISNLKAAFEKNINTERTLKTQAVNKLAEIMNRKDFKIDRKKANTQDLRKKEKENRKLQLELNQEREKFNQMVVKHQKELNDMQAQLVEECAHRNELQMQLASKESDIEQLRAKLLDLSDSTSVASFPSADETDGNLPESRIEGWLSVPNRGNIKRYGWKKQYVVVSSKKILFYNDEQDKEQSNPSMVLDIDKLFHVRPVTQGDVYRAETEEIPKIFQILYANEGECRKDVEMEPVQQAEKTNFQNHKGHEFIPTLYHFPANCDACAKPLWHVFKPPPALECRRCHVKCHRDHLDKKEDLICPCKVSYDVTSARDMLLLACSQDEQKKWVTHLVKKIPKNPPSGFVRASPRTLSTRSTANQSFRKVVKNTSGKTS
PROTOCOL DETAILS: Binding affinity to recombinant full-length N-terminal His-FLAG-GST-tagged ROCK1 (unknown origin) (1 to 477 residues) expressed in baculovirus infected Sf9 insect cells incubated for 1 hr by TR-FRET assay
I'd appreciate it if you could supply pKd values for the items below.
Numbers only, as −log10 of the molar value.

{"STRUCTURE AS SMILES": "CO[C@@H]1[C@H](N(C)CCOCCOCCOCCNC(=O)CCC2=[N+]3C(=Cc4c(C)cc(C)n4[B-]3(F)F)C=C2)C[C@H]2O[C@]1(C)n1c3ccccc3c3c4c(c5c6ccccc6n2c5c31)C(=O)NC4", "TARGET": "Rho-associated protein kinase 1 (Homo sapiens)", "pKd": 7.59}

Then there is this compound:
// pKd lookup, key: `CO[C@@H]1[C@H](NCCOCCOCCOCCNC(=O)CCC2=[N+]3C(=Cc4c(C)cc(C)n4[B-]3(F)F)C=C2)C[C@H]2O[C@]1(C)n1c3ccccc3c3c4c(c5c6ccccc6n2c5c31)C(=O)NC4`
7.46

====

TARGET: Cyclin-C/Cyclin-dependent kinase 19 (Homo sapiens, UniProt Q9BWU1)
Sequence (Q9BWU1 whole entry): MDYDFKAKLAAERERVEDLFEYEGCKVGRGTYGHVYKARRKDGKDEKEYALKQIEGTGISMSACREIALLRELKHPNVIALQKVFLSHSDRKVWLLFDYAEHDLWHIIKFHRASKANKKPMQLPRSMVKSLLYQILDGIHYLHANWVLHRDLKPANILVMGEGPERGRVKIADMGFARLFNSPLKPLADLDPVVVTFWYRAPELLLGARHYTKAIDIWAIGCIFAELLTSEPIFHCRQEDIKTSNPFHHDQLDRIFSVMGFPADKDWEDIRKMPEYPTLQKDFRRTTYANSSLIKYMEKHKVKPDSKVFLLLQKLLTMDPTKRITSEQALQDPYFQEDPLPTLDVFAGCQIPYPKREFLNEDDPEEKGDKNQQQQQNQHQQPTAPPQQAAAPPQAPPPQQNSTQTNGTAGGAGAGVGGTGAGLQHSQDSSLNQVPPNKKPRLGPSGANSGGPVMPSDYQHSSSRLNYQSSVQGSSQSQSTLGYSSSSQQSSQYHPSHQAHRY
Sequence (P24863 whole entry, further chain): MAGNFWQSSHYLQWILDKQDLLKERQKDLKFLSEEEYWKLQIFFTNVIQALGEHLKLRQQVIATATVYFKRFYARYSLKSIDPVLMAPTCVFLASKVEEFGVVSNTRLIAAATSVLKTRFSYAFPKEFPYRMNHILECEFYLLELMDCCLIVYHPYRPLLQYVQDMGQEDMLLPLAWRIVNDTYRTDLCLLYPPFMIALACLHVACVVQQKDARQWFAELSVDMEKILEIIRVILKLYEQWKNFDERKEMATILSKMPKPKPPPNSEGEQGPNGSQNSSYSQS
PROTOCOL DETAILS: Binding affinity to recombinant human full length N-terminal GST-tagged CDK19 co-expressed with N-terminal GST-tagged CyclinC expressed in baculovirus expression system using RNA polymerase peptide as substrate incubated for 1 hr by TR-FRET assay
ENDPOINT: pKd
Numbers only, as −log10 of the molar value.

{"STRUCTURE AS SMILES": "CO[C@@H]1[C@H](NCCOCCOCCOCCNC(=O)CCC2=[N+]3C(=Cc4c(C)cc(C)n4[B-]3(F)F)C=C2)C[C@H]2O[C@]1(C)n1c3ccccc3c3c4c(c5c6ccccc6n2c5c31)C(=O)NC4", "pKd": 6.59}

Then there is this compound:
// pKd lookup, key: `CO[C@@H]1[C@H](N(C)CCOCCOCCOCCNC(=O)CCC2=[N+]3C(=Cc4c(C)cc(C)n4[B-]3(F)F)C=C2)C[C@H]2O[C@]1(C)n1c3ccccc3c3c4c(c5c6ccccc6n2c5c31)C(=O)NC4`
6.90
